- Read-out: Interleukin 17F (IL17F), IL17F (gene 112744)
- experiment.description: BSK_BT_xIL17F: BioMAP Diversity Plus: BT Assay for Interleukin 17F (IL17F) Biomarker Activity (AID 2284243)
- particulars: primary human B cells with PBMC
Activity calls are given as the source filed them. The calls were made as follows: active = hit-call score of the fitted dose curve at least 0.9, where 1 is the maximum; inactive = score below 0.9.
Possible outcomes: active, inactive

substance_smiles=O=C1OC2(c3ccccc31)c1ccc(O)c(Br)c1Oc1c2ccc(O)c1Br label_value=inactive
substance_smiles=CC(=O)c1c(C)c([N+](=O)[O-])c(C(C)(C)C)c([N+](=O)[O-])c1C label_value=active
substance_smiles=C=C(C)C(=O)OCCOCCOCCOC(=O)C(=C)C label_value=inactive
substance_smiles=c1ccc(Oc2ccccc2)cc1 label_value=inactive
substance_smiles=CC=Cc1ccc(OCC)c(O)c1 label_value=inactive
substance_smiles=COc1cc(Cl)c(OC)cc1N label_value=inactive
substance_smiles=COc1ccc(OC)c(N=Nc2c(O)ccc3ccccc23)c1 label_value=active
substance_smiles=CS(=O)(=O)c1ccc(C2=C(c3ccccc3)C(=O)OC2)cc1 label_value=inactive
substance_smiles=CC1(C)C2=CCCC(C)(C)[C@]23CC[C@H]1C3 label_value=inactive
substance_smiles=CC(C)(N=C=O)c1cccc(C(C)(C)N=C=O)c1 label_value=inactive
substance_smiles=CCCCCC(C=O)=Cc1ccccc1 label_value=inactive
substance_smiles=Oc1c(Cl)cc(Cl)c(Cl)c1Cc1c(O)c(Cl)cc(Cl)c1Cl label_value=active

* * *

- experiment.description: ATG_M_19_CIS: Attagene CIS-FACTORIAL HepG2 Assay for M19 Transcription Factor (Internal Marker) (AID 2282939)
- particulars: HepG2 Attagene CIS-FACTORIAL M19 internal marker reporter; actives raise or lower the signal
Active and inactive are the calls of the source. The calls were made as follows: active = hit-call score of the fitted dose curve at least 0.9, where 1 is the maximum; inactive = score below 0.9.
Possible outcomes: true (1) (active), false (0) (inactive)

molecule=Cc1c(C2(c3cc(Br)c(O)c(Br)c3C)OS(=O)(=O)c3ccccc32)cc(Br)c(O)c1Br label_value="false (0)"
molecule=CCc1cc(C(C)(C)C)c(O)c(C(C)(C)C)c1 label_value="false (0)"
molecule=Cc1cc(=O)oc2cc(N(C)C)ccc12 label_value="false (0)"
molecule="CC(=O)O[C@@H]1CC2CCC1(C)C2(C)C (stereo not given in full)" label_value="false (0)"
molecule="CC(=O)C1(C)CC2=C(CCCC2(C)C)CC1C (stereo not given)" label_value="true (1)"
molecule=C=Cc1ccncc1 label_value="false (0)"
molecule=CSCCC=O label_value="false (0)"
molecule=OC[C@H]1O[C@@H](Oc2ccc(O)cc2)[C@H](O)[C@@H](O)[C@@H]1O label_value="false (0)"
molecule=CCCCCCCCC=CCCCCCCCC1=NCCN1CCO label_value="false (0)"
molecule=O=C(O)COCC(=O)O label_value="false (0)"
molecule=CCCCCCCCc1ccc(S(=O)(=O)O)cc1 label_value="true (1)"
molecule=CCCCCCCC(=O)OCCCCCC label_value="false (0)"
molecule=OCc1ccc(Cl)cc1Cl label_value="false (0)"
molecule="CCCCCCCC(=O)OCC(O)CO (stereo not given)" label_value="false (0)"
molecule=COC(C)(C)CCO label_value="false (0)"

* * *

- assay.system: human Vitamin D Receptor (VDR), VDR (gene 7421) (UniProt P11473)
- Sequence (P11473 whole entry, looked up): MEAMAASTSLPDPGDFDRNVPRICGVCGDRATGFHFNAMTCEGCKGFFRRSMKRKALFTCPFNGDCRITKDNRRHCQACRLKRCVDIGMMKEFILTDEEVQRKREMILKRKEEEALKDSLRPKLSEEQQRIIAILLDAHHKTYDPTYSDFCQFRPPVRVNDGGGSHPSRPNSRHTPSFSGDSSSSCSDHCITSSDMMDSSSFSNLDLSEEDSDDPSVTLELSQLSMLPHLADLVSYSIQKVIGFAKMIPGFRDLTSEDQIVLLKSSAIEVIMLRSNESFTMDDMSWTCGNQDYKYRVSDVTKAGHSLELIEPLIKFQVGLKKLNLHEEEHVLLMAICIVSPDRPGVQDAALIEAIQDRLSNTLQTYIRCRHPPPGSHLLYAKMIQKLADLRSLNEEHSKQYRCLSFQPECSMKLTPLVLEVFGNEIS
- experiment.description: ATG_VDR_TRANS: Attagene TRANS-FACTORIAL HepG2 Assay for human Vitamin D Receptor (VDR) (AID 2283022)
Results filed as inconclusive are left out. Calls of active or inactive are those of the source. The calls were made as follows: active = hit-call score of the fitted dose curve at least 0.9, where 1 is the maximum; inconclusive = response in the unintended direction; inactive = score below 0.9.
Possible outcomes: active, inactive

compound=CCCOC(=O)c1c(Cl)c(Cl)c(Cl)c(Cl)c1C(=O)OCCC label_value=inactive
compound=CCNCCO label_value=inactive
compound=C=C1CC[C@H](O)C/C1=C/C=C1\CCC[C@]2(C)[C@@H]([C@H](C)/C=C/[C@H](C)C(C)C)CC[C@@H]12 label_value=active
compound=C[C@H](CCC(=O)NCC(=O)O)[C@H]1CC[C@H]2[C@@H]3[C@H](O)C[C@@H]4C[C@H](O)CC[C@]4(C)[C@H]3C[C@H](O)[C@]12C label_value=inactive
compound="CC(C)NCC(O)COc1ccc(CC(N)=O)cc1 (stereo unspecified)" label_value=inactive
compound="CCCCCCCCCCCC(=O)OCC(O)CO (stereo unspecified)" label_value=inactive
compound=O=C(CS)OCCOC(=O)CS label_value=inactive
compound=CC(C)OCCO label_value=inactive
compound="CCC(C)S (stereo unspecified)" label_value=inactive
compound=C=C1C[C@]23C[C@@]1(O)CC[C@H]2[C@@]12C=C[C@H](O)[C@@](C)(C(=O)O1)[C@H]2[C@@H]3C(=O)O label_value=inactive
compound=CN1C(=O)c2ccccc2C1=O label_value=inactive
compound=O=C(O)c1cc(C(=O)O)cc([N+](=O)[O-])c1 label_value=inactive
compound="COC(=O)c1ccc(C)cc1C1=NC(C)(C(C)C)C(=O)N1 (stereo unspecified) (tested in a mixture with another compound)" label_value=inactive
compound="CCCC(=O)C(CC)Sc1ccoc1C (stereo unspecified)" label_value=inactive
compound=C1CCOC1 label_value=inactive
compound=O=C1OC(=O)c2c(Br)c(Br)c(Br)c(Br)c21 label_value=inactive
compound=CC1(C)COCN1 label_value=inactive
compound=Cc1ccc2c(c1)C(=O)OC2=O label_value=inactive
compound=CCCCCCCC/C=C\CCCCCCCC(=O)OCC label_value=inactive
compound="CCCCCCCCCC(C)C=O (stereo unspecified)" label_value=inactive
compound="CCOC(=O)C1OC1c1ccccc1 (stereo unspecified)" label_value=inactive
compound=Cc1ccc(N)c(S(=O)(=O)O)c1 label_value=inactive
compound="CC1C2CC(CC2C2CCCC(O)C2)C1(C)C (stereo unspecified)" label_value=inactive
compound=COc1ccccc1N=Nc1c(S(=O)(=O)O)cc2cc(S(=O)(=O)O)cc(NC(C)=O)c2c1O label_value=inactive
compound=C=COCCOCCOC=C label_value=inactive
compound="CCCC1O[C@@H]2C[C@H]3[C@@H]4CCC5=CC(=O)C=C[C@]5(C)[C@H]4[C@@H](O)C[C@]3(C)[C@]2(C(=O)CO)O1 (stereo partly specified)" label_value=inactive

* * *

- Read-out: Plasminogen activator inhibitor-1 (PAI1), SERPINE1 (gene 5054)
- experiment.description: BSK_hDFCGF_PAI1: BioMAP Diversity Plus: hDFCGF Assay for Plasminogen activator inhibitor-1 (PAI1) Biomarker Activity (AID 2283066)
- particulars: primary human foreskin fibroblasts; actives raise or lower the signal
- Procedure: BSK_hDFCGF is a cell-based, multiplexed-readout assay that uses foreskin fibroblast, a human skin primary cell, with measurements taken at 24 hours after chemical dosing in a 96-well plate.BSK_hDFCGF_PAI1 is an assay component measured in the BSK_hDFCGF assay. It measures PAI-1 antibody related to regulation of gene expression using ELISA technology.Data from the assay component BSK_hDFCGF_PAI1 was analyzed into 1 assay endpoint. […]
Activity calls are given as the source filed them. How the source made its calls: active means hit-call score of the fitted dose curve at least 0.9, where 1 is the maximum; inactive means score below 0.9.
Possible outcomes: t (active), f (inactive)

compound=O=CN1CCOCC1 label_value=f
compound=CCCCN(CCCC)C(=O)N(CCCC)CCCC label_value=t
compound=CN(C)C(=S)SC(=S)N(C)C label_value=t
compound=c1ccc(CCc2ccccc2)cc1 label_value=t
compound=CCN(CC)C(=O)N(CC)CC label_value=f
compound=c1ccc2cc(Nc3ccc(Nc4ccc5ccccc5c4)cc3)ccc2c1 label_value=f
compound=COc1ccc(OC)c(N=Nc2c(O)ccc3ccccc23)c1 label_value=f
compound=C[C@@H]1CCN(C(=O)[C@H](CCCN=C(N)N)NS(=O)(=O)c2cccc3c2NC[C@H](C)C3)[C@@H](C(=O)O)C1 label_value=f
compound=CC(=O)Nc1ccc(C(=O)CCl)cc1 label_value=t
compound=Oc1c(Cl)cc(Cl)c(Cl)c1Cc1c(O)c(Cl)cc(Cl)c1Cl label_value=t
compound=O=C1OC[C@H](Cc2cccc(O)c2)[C@H]1Cc1cccc(O)c1 label_value=f
compound=COc1cc(Cl)c(OC)cc1N label_value=f
compound=C=C(C)C(=O)OCC(CC)(COC(=O)C(=C)C)COC(=O)C(=C)C label_value=t
compound=C=C(C)[C@H]1CC=C(C)C(=O)C1 label_value=f
compound=CN(C)C(=O)Nc1ccc(Oc2ccc(Cl)cc2)cc1 label_value=t
compound="CC(=O)C1(C)CC2=C(CCCC2(C)C)CC1C (centres undefined)" label_value=t
compound=CC(C)(N=C=O)c1cccc(C(C)(C)N=C=O)c1 label_value=f
compound="CC(CN=Cc1ccccc1O)N=Cc1ccccc1O (centres undefined)" label_value=f
compound=CCCCOC(=O)CCCCCCCC(=O)OCCCC label_value=f

* * *

- Read-out: Vascular cell adhesion molecule 1 (VCAM1), VCAM1 (gene 7412)
- experiment.description: BSK_4H_VCAM1: BioMAP Diversity Plus: 4H Assay for Vascular cell adhesion molecule 1 (VCAM1) Biomarker Activity (AID 2283033)
- particulars: primary human endothelial cells (HUVEC); actives raise or lower the signal
Calls of active or inactive are those of the source. The calls were made as follows: active = hit-call score of the fitted dose curve at least 0.9, where 1 is the maximum; inactive = score below 0.9.
Possible outcomes: active, inactive

compound=O=C1OC[C@H](Cc2cccc(O)c2)[C@H]1Cc1cccc(O)c1 label_value=inactive
compound=CSCCC=O label_value=inactive
compound=CC(=O)Nc1ccc(C(=O)CCl)cc1 label_value=active
compound=O=C1OC2(c3ccccc31)c1ccc(O)c(Br)c1Oc1c2ccc(O)c1Br label_value=active
compound=CN(C)C(=O)Nc1ccc(Oc2ccc(Cl)cc2)cc1 label_value=inactive
compound=CS(=O)(=O)OCCCCOS(C)(=O)=O label_value=inactive
compound=Oc1c(Cl)cc(Cl)c(Cl)c1Cc1c(O)c(Cl)cc(Cl)c1Cl label_value=active
compound=C=C(C)[C@H]1CC=C(C)C(=O)C1 label_value=inactive
compound="CCC(C)c1cc([N+](=O)[O-])cc([N+](=O)[O-])c1OC(=O)OC(C)C (stereo unspecified)" label_value=active
compound=Clc1cc(Cl)c(-c2c(Cl)c(Cl)cc(Cl)c2Cl)cc1Cl label_value=active
compound="C=CC(C)(O)CCC=C(C)C (stereo unspecified)" label_value=inactive
compound=CC=Cc1ccc(OCC)c(O)c1 label_value=inactive
compound=CCCCOC(=O)CCCCCCCC(=O)OCCCC label_value=inactive
compound=C[C@@H]1CCN(C(=O)[C@H](CCCN=C(N)N)NS(=O)(=O)c2cccc3c2NC[C@H](C)C3)[C@@H](C(=O)O)C1 label_value=inactive
compound=CCCCCC(C=O)=Cc1ccccc1 label_value=active
compound="CC(C=O)Cc1ccc(C(C)(C)C)cc1 (stereo unspecified)" label_value=active
compound=CCCCCCCCCCCCCCCC(=O)OC/C=C(C)/C=C/C=C(C)/C=C/C1=C(C)CCCC1(C)C label_value=inactive
compound=CC(C)(C)CC(C)(C)c1ccc(OCCOCC[N+](C)(C)Cc2ccccc2)cc1 label_value=active
compound=c1ccc(Oc2ccccc2)cc1 label_value=active
compound=c1ccc(CCc2ccccc2)cc1 label_value=active
compound=O=C1c2ccccc2C(=O)c2c(O)ccc(O)c21 label_value=inactive
compound=O=C(Nc1ccc2c(O)c(N=Nc3ccc(N=Nc4ccc(S(=O)(=O)O)cc4)cc3)c(S(=O)(=O)O)cc2c1)c1ccccc1 label_value=inactive
compound=CCCCN(CCCC)C(=O)N(CCCC)CCCC label_value=active
compound=CCN(CC)C(=O)N(CC)CC label_value=inactive
compound=COc1cc(Cl)c(OC)cc1N label_value=inactive
compound="C1=CC2C3C=CC(C3)C2C1 (stereo unspecified)" label_value=inactive
